Cited source: the supplement of paper PMC9694430

tested on: LOC_OS02G54510-cb004; test: thermal shift delta Tm vs DMSO control; higher = stronger stabilization (binding); settings: 12.5 µM; protein concentration 2 µM;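 further: purified Escherichia coli-expressed rice kinase domain construct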
Structures can show the parent of a compound that is named as a salt.
Threshold rule: thermal shift delta Tm greater than or equal to 0.4 °C is TRUE; below that, FALSE.

Past entries and their recorded results:
[
  {
    "COMPOUND": "COc1cc2c(Oc3ccc(NC(=O)C4(C(=O)Nc5ccc(F)cc5)CC4)cc3F)ccnc2cc1OCCCN1CCOCC1",
    "CLASS": "TRUE"
  },
  {
    "COMPOUND": "CNC(=O)c1nn(C)c2c1C(C)(C)Cc1cnc(Nc3ccc(N4CCN(C)CC4)cc3)nc1-2",
    "CLASS": "TRUE"
  },
  {
    "COMPOUND": "Cc1cc(C(=O)NOCCO)c(Nc2ccc(I)cc2F)n(C)c1=O",
    "CLASS": "FALSE"
  },
  {
    "COMPOUND": "O=C(Nc1cnn2ccc(N3CCC[C@@H]3c3cc(F)ccc3F)nc12)N1CC[C@H](O)C1 [Larotrectinib (LOXO-101) sulfate]",
    "CLASS": "FALSE"
  },
  {
    "COMPOUND": "O=C(NOCCO)c1ccc2cncn2c1Nc1ccc(I)cc1F",
    "CLASS": "FALSE"
  }
]

Ask: Given CCCCNc1ncc(-c2ccc(CN3CCOCC3)cn2)c(NC2CCC(O)CC2)n1 (centres undefined) , state whether its thermal shift delta Tm is at least 0.4 °C.
Reply: FALSE

Ask: Given CS(=O)(=O)c1ccc(-c2cnc(N)c(C(=O)Nc3ccccc3)n2)cc1 , state whether its thermal shift delta Tm is at least 0.4 °C.
Reply: FALSE

Ask: Given C=CC(=O)Nc1cccc(C)c1Nc1ncc2cc(-c3c(Cl)c(OC)cc(OC)c3Cl)ccc2n1 , state whether its thermal shift delta Tm is at least 0.4 °C.
Reply: TRUE

Ask: Given CCCCOc1c(C(=O)c2c(F)cc(C)cc2F)c[nH]c2nncc1-2 , state whether its thermal shift delta Tm is at least 0.4 °C.
Reply: FALSE

###

Kindly supply the reported thermal shift delta Tm values for the records listed here.
tested on: LOC_OS04G38480-cb003; test: thermal shift delta Tm vs DMSO control; higher = stronger stabilization (binding); conditions: 12.5 µM; protein concentration 2 µM
Sequence (as listed by the source): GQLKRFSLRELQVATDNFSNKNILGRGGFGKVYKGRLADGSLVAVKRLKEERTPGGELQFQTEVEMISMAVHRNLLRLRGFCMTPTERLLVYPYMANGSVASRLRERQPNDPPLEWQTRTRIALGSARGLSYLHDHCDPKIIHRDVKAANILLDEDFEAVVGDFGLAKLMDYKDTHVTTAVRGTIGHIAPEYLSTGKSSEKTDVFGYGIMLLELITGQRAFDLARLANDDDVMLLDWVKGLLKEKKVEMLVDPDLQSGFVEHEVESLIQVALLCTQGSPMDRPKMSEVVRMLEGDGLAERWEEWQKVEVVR
One number for each entry, in °C.

Could you tell me thermal shift delta Tm for each of these compounds? They are listed below.
1. CCN(CC)CCNC(=O)c1c(C)[nH]c(/C=C2\C(=O)Nc3ccc(-c4csc(-c5ccccc5)n4)cc32)c1C
2. C[C@H](CN(C)C)Oc1nc(Nc2cc3cccc(Cl)c3cn2)cnc1C#N
3. CC1(C)CNc2cc(NC(=O)c3cccnc3NCc3ccncc3)ccc21 [Motesanib Diphosphate (AMG-706)]
4. NC(=O)c1ccc(N(C(N)=O)c2c(F)cccc2F)nc1-c1ccc(F)cc1F
5. Nc1ncnc2n[nH]c(Nc3ccc(F)cc3)c12
6. COc1ccc2c(Oc3ccc(NC(=O)c4c(C)n(CC(C)(C)O)n(-c5ccccc5)c4=O)nc3)ccnc2c1

Reply:
[1.78, 1.13, 0.65, -0.04, 0.62, 1.95]

###

Kindly supply the reported thermal shift delta Tm values for the records listed here.
system: LOC_OS01G63280-cb003; test: thermal shift delta Tm vs DMSO control; higher = stronger stabilization (binding); conditions: 12.5 µM; protein concentration 2 µM
Where a name gives a salt, the structure may show the parent alone.
Field: value (include unit after the number)

Worked examples follow.
[
  {
    "COMPOUND": "CS(=O)(=O)N1CCc2c(-c3cnc(N)nc3)nc(N3CCOCC3)nc21",
    "PARAMETER": "thermal shift delta Tm",
    "RESULT": "0.4 °C"
  },
  {
    "COMPOUND": "CC#CC(=O)N1CCC[C@H]1c1nc(-c2ccc(C(=O)Nc3ccccn3)cc2)c2c(N)nccn12",
    "PARAMETER": "thermal shift delta Tm",
    "RESULT": "0.05 °C"
  }
]

Could you tell me thermal shift delta Tm for each of these compounds? They are listed below.
1. C#Cc1cccc(Nc2ncnc3cc(OC)c(OCCCCCCC(=O)NO)cc23)c1
2. Cc1cnc(Nc2ccc(OCCN3CCCC3)cc2)nc1Nc1cccc(S(=O)(=O)NC(C)(C)C)c1
3. CSc1cccc(Nc2ncc3cc(-c4c(Cl)cccc4Cl)c(=O)n(C)c3n2)c1
4. Nc1ncccc1-c1nc2ccc(-c3ccccc3)nc2n1-c1ccc(C2(N)CCC2)cc1 [Miransertib (ARQ 092) HCl]
5. N#CC[C@H](C1CCCC1)n1cc(-c2ncnc3[nH]ccc23)cn1
6. COc1cc2nccc(Oc3ccc(NC(=O)NC4CC4)c(Cl)c3)c2cc1C(N)=O [Lenvatinib (E7080)]

Reply:
0.06 °C
0.21 °C
0.6 °C
-0.11 °C
0.56 °C
0.36 °C

Could you tell me thermal shift delta Tm for each of these compounds? They are listed below.
1. O=C(Nc1nc2cccc(-c3ccc(CN4CCS(=O)(=O)CC4)cc3)n2n1)C1CC1
2. Cc1cnc(NC(=O)Nc2cc(Br)c(C)cc2OC[C@@H]2CNCCO2)cn1
3. CCn1c(N)c(C(=O)NC)c(=O)c2ccc(C#CC(C)(O)COC)nc21 (stereo not drawn)
4. COc1ccc(Cl)cc1NC(=O)Nc1cc(C)nc2ccccc12
5. CC(C)Oc1ccc(-c2nn([C@@H](C)c3oc4ccc(F)cc4c(=O)c3-c3cccc(F)c3)c3ncnc(N)c23)cc1F
6. CC(C)(O)CNc1ncc(-c2ccnc(Nc3ccncc3)n2)c(CC2CC2)n1
7. CC1(C)C=Cc2c(ccc3c2OC[C@@H](c2ccc(O)cc2O)C3)O1

Reply:
0.12 °C
0.14 °C
0.41 °C
0.87 °C
0.47 °C
0.12 °C
3.61 °C
